- TEST_METHOD_NOTES: gradient 5% acetonitrile 3 min, to 50% in 2 min, to 85% in 15 min, held 3 min, 100 µL/min
- STATED_CONDITIONS: column: Zorbax Extend-C18 2.1 x 50 mm; eluents: water / acetonitrile, 0.1% formic acid
Measured RP-LC retention time, listed per entry.

{"COMPOUND": "Cc1ccc(Cl)cc1S(=O)(=O)NCC(=O)N1CCOC(c2ccccc2)C1 (stereo not given)", "RP-LC retention time": "910 s"}
{"COMPOUND": "CN1CCN(C(=O)c2ccc(-c3ccc(Br)cc3)o2)CC1", "RP-LC retention time": "588 s"}
{"COMPOUND": "Cn1nc(-c2nnc(-c3ccccc3Cl)o2)c2c1CCN(C(=O)COc1ccccc1)C2", "RP-LC retention time": "864 s"}
{"COMPOUND": "O=C(CS(=O)Cc1cnn(-c2ccccc2)c1-n1cccc1)N1CCN(C2CCCCC2)CC1 (stereo not given)", "RP-LC retention time": "643 s"}
{"COMPOUND": "CCNC(=O)C1CCCN(c2nc3ncn(CC(=O)NCc4ccc5c(c4)OCO5)c(=O)c3s2)C1 (stereo not given)", "RP-LC retention time": "640 s"}
{"COMPOUND": "O=C(NCc1cnoc1-c1ccc(F)cc1)c1ccc2c(c1)OCO2", "RP-LC retention time": "881 s"}
{"COMPOUND": "Cc1sc(C)c(S(=O)(=O)N2CCCC2)c1-c1cc(C(F)(F)F)on1", "RP-LC retention time": "1130 s"}
{"COMPOUND": "c1cc(N2CCSCC2)ncc1-c1noc(CN2CCOCC2)n1", "RP-LC retention time": "702 s"}
{"COMPOUND": "CCOc1ccc(C(=O)NCc2c(-c3ccccc3)nc3sc(CC)nn23)cc1", "RP-LC retention time": "943 s"}
{"COMPOUND": "COc1ccc(N2CCN(c3cc(SCC(=O)NCCCc4ccccc4)ncn3)CC2)cc1", "RP-LC retention time": "1110 s"}
{"COMPOUND": "CN1C(=O)[C@H]2CN(Cc3ccc(F)c(F)c3)C[C@H]2C1=O", "RP-LC retention time": "590 s"}
{"COMPOUND": "COC(=O)c1ccc2c(=O)n(Cc3ccc(OC)cc3)c(N3CCOCC3)nc2c1", "RP-LC retention time": "943 s"}
{"COMPOUND": "O=C(NCc1cccnc1)c1cn2ccnc(-c3ccccc3)c2n1", "RP-LC retention time": "599 s"}
{"COMPOUND": "COc1cccc(N2CCN(c3ccnc(SCC(=O)Nc4ccc5c(c4)OCO5)n3)CC2)c1", "RP-LC retention time": "728 s"}
{"COMPOUND": "COc1cccc(CNC(=O)Cn2c(=O)c3cc(-c4cccs4)nn3c3ncccc32)c1", "RP-LC retention time": "835 s"}
{"COMPOUND": "Cc1csc(-c2cc(S(=O)(=O)N3CCCC3)cn2CC(=O)N2CCCCC2)n1", "RP-LC retention time": "875 s"}
{"COMPOUND": "CN1C(=O)C(C)(C(=O)NCc2ccccc2Cl)Oc2cccnc21 (stereo not given)", "RP-LC retention time": "795 s"}
{"COMPOUND": "COCc1nc(-c2ccc(OC3CNC3)cc2)no1", "RP-LC retention time": "578 s"}
{"COMPOUND": "CSc1ccc(CNC(=O)c2cn3cccc(C)c3n2)cc1", "RP-LC retention time": "755 s"}
{"COMPOUND": "COC(=O)c1ccc2c(=O)n(-c3ccc4c(c3)OCO4)c(N3CCCC3)nc2c1", "RP-LC retention time": "885 s"}
